test system: UO-31; assay: NCI tumour cell line growth inhibition, 48 h
Calls of active or inactive are those of the source. Cut-off read from the data, not from the text of the source: active = GI50 up to about 1.1 µM and inactive = higher. *1 amine or outer side, *2 acyl side, *3 side chain or, on linkers, in order; H or OH if unused. Where a SMILES comes first, the peptide text is derived from it. The star is where a group is joined. γGlu = O=C(O)[CH](CCC(=O)[*:2])N[*:1]; NHOH = ON*
Classes used: 1 (active), 0 (inactive)

INSERT INTO measurements (molecule, assigned_class) VALUES
  ('CCOC(=O)NC(Nc1ccc(C(=O)O)cc1)(C(F)(F)F)C(F)(F)F', 0),
  ('C=C1C(=O)OC2/C=C(\C)C3OC3/C=C(/C(=O)OC)C(OC(C)=O)C(OC(=O)C(C)(O)C(C)OC(C)=O)C12 (stereo not drawn)', 0),
  ('COC(=O)c1c(C(=O)OC)c2ccc(-c3ccc(Cl)cc3)nn2c1C(=O)c1ccc([N+](=O)[O-])cc1', 0),
  ('CC1CCCN(CP(=O)(c2ccccc2)c2ccccc2)C1 (stereo not drawn)', 0),
  ('COc1ccc2c(c1)/C(=C\c1c(-c3ccccc3)nc3n1CCS3)C(=O)N2', 0),
  ('O=C(/C=C/c1ccccc1)C[C@@H](O)C[C@@H]1CC=CC(=O)O1', 0),
  ('O=C(/C=C1\N=C(c2ccccc2)N(c2nc3c(Cl)cc(Cl)cc3s2)C1=O)/C=C/c1ccccc1', 0),
  ('Cc1nc2c(=O)[nH]c(=O)n(C)c2[nH]c1=O.c1ccncc1', 0),
  ('Cc1c(C)c(S(=O)(=O)N(CCCCN)OCCCN)c(C)c2c1OC(C)(C)CC2', 0),
  ('NC(CCC(=O)NC(CCC(=O)NO)C(=O)NCC(=O)O)C(=O)O (stereo not drawn) (γGlu-Glu(NHOH)-Gly-OH; configuration not given here)', 0),
  ('COc1ccc(CNC2=Nc3ccncc3S(=O)(=O)N2c2ccccc2)cc1', 0),
  ('O=C1C=C(Br)C(=O)C12CCc1ccccc12 (stereo not drawn)', 0),
  ('S=C(c1c[nH]c2ccccc12)N1CCOCC1', 0),
  ('N#CC(NNC(=O)c1ccccc1O)c1ccc(O)cc1 (stereo not drawn)', 0),
  ('CCC(C)(O)c1cnc(CC(C)C)c(=O)n1O (stereo not drawn)', 0),
  ('c1ccc(-c2ccnc3c2ccc2c(-c4ccccc4)ccnc23)cc1', 1),
  ('CCNC(=O)C1CCCN1C(=O)C(CCCN=C(N)N)NC(=O)C(CC(C)C)NC(=O)C(Cc1c[nH]c2ccccc12)NC(=O)C(Cc1ccc(O)cc1)NC(=O)C(CO)NC(=O)C(Cc1c[nH]c2ccccc12)NC(=O)C(Cc1c[nH]cn1)NC(=O)C1CCC(=O)N1 (stereo not drawn)', 0),
  ('CC1(C)O[C@H]2OC(CO[Si](C)(C)C(C)(C)C)C(N=[N+]=[N-])[C@H]2O1 (stereo partly drawn)', 0),
  ('CCP(=S)(CC)CCl', 0),
  ('Cc1nc2ccccc2nc1NS(=O)(=O)c1ccc(N)cc1', 0),
  ('COc1ccc(NC(=O)CC(=O)N2N=C(N(c3ccccc3)c3ccccc3)CC2c2ccccc2)cc1 (stereo not drawn)', 0),
  ('Cc1ccc2c(O)cc(-c3cccs3)nc2n1', 0),
  ('CC(=O)[C@]1(O)Cc2c(O)c3c(c(O)c2C(OC2OC(C)C(O)C(O)C2F)C1)C(=O)c1ccccc1C3=O (stereo partly drawn)', 1);
